- Tested on: astro (control astrocytes)
- method_summary: Drug repurposing screens with cells derived from glioblastoma tumor samples (AID 1345199); further: nearly all actives have a fitted effect of over 40% in size; further: potency means the concentration at half of the fitted maximal effect
- measurement_conditions: viability, ATP luminescence, 48 h; series mostly up to 45.9 µM
Records with an inconclusive call do not appear. Calls of active or inactive are those of the source. The call rests on the fitted dose curve; in most records, active means well fitted inhibition curve with a large enough effect; inconclusive means small, poorly fitted or top-dose-only effect; inactive means flat fitted curve, though single readings scatter.
measured_endpoint: Potency

Previously resolved entries follow.
[
  {
    "molecule": "O=C(Nc1cccc(C(F)(F)F)c1)c1cc(Br)cc(Br)c1O",
    "Potency": "2510 nM (active)"
  },
  {
    "molecule": "CCCCC(C)(O)C/C=C/[C@H]1[C@H](O)CC(=O)[C@@H]1CCCCCCC(=O)OC (stereo partly specified)",
    "Potency": "inactive"
  },
  {
    "molecule": "CC[C@@H](C(=O)O)[C@@H]1O[C@@H]([C@@H](C)[C@H](O)[C@H](C)C(=O)[C@H](CC)[C@H]2O[C@]3(C=C[C@@H](O)[C@]4(CC[C@@](C)([C@H]5CC[C@](O)(CC)[C@H](C)O5)O4)O3)[C@H](C)C[C@@H]2C)[C@@H](C)C[C@@H]1C",
    "Potency": "794 nM (active)"
  },
  {
    "molecule": "CCCCC(CC)COC(=O)CC(C(=O)OCC(CC)CCCC)S(=O)(=O)O (stereo unspecified)",
    "Potency": "inactive"
  }
]

// query Tell me the measured Potency of "CO[C@H]1C=CO[C@@]2(C)Oc3c(C)c(O)c4c(O)c(c5c(c4c3C2=O)=NC2(CCN(CC(C)C)CC2)N=5)NC(=O)/C(C)=C\C=C/[C@H](C)[C@H](O)[C@@H](C)[C@@H](O)[C@@H](C)[C@H](OC(C)=O)[C@@H]1C" , please.
// result inactive

// query Repeat for the following molecule: O=C(O)C1CCCN1 (stereo unspecified)
// result inactive

// query Repeat for the following molecule: "C[C@H](CCC(=O)O)[C@H]1CC[C@H]2[C@@H]3[C@H](O)C[C@@H]4C[C@H](O)CC[C@]4(C)[C@H]3CC[C@]12C"
// result inactive

// query Repeat for the following molecule: COC(=O)C1=C(C#N)NC(C)=C(C(=O)OC(C)C)C1c1cccc([N+](=O)[O-])c1 (stereo unspecified)
// result inactive

// query Repeat for the following molecule: "CC[C@H]1OC(=O)C[C@@H](O)[C@H](C)[C@@H](O[C@@H]2O[C@H](C)[C@@H](O)[C@H](N(C)C)[C@H]2O)[C@@H](CCN2C[C@H](C)C[C@H](C)C2)C[C@@H](C)C(=O)/C=C/C(C)=C/[C@@H]1CO[C@@H]1O[C@H](C)[C@@H](O)[C@@H](OC)[C@H]1OC"
// result inactive

----------
- System: TAB165
- method_summary: qHTS profiling for inhibitors of Plasmodium falciparum proliferation (AID 504749); further: nearly all actives have a fitted effect of over 60% in size
- measurement_conditions: P. falciparum in erythrocytes, SYBR Green DNA, 72 h; series mostly up to 28.7 µM
Records with an inconclusive call do not appear. Active and inactive are the calls of the source. The call rests on the fitted dose curve; in most records, active means well fitted inhibition curve with a large enough effect; inconclusive means small, poorly fitted or top-dose-only effect; inactive means flat fitted curve, though single readings scatter.
Output constraint: value belongs to active, inactive

// known answers, use as guide
[
  {
    "compound": "CO[C@H]1C[C@@H]2CC[C@@H](C)[C@@](O)(O2)C(=O)C(=O)N2CCCC[C@H]2C(=O)O[C@H]([C@H](C)C[C@@H]2CC[C@@H](OCCO)[C@H](OC)C2)CC(=O)[C@H](C)/C=C(\\C)[C@@H](O)[C@@H](OC)C(=O)[C@H](C)C[C@H](C)/C=C/C=C/C=C/1C",
    "category_label": "active"
  },
  {
    "compound": "CCOC(=O)C1=CC2(CC)CCCN3CCc4c(n1c1ccccc41)C32 (stereo not drawn)",
    "category_label": "active"
  },
  {
    "compound": "CCOC(C)=O",
    "category_label": "inactive"
  }
]

// query Look up the recorded call for CCCCC(C)(O)C/C=C/[C@H]1[C@H](O)CC(=O)[C@@H]1CCCCCCC(=O)OC (stereo partly drawn) in this test.
// result inactive

// query Repeat for the following compound: "CC(C)(C)C(=O)OCOC(=O)[C@@H]1N2C(=O)[C@@H](N=CN3CCCCCC3)[C@H]2SC1(C)C"
// result inactive

----------
The compounds listed here are annotated with their max response.
- Test system: NIH3T3
- method_summary: Cytotoxic Profiling of Annotated Libraries Using Quantitative High-Throughput Screening (AID 1296008); further: on the % scale 0 is the no-effect control and ±100 the full control effect; nearly all actives have a fitted effect of over 60% in size
- measurement_conditions: Five cell lines viability, CellTiter-Glo ATP luminescence, 48-72 h; stronger effect = lower value
Records with an inconclusive call do not appear.
Form entry: value (%) — number only.

[
  {
    "compound": "CCc1c(CC(N)=O)c2cc(OCCCP(=O)(O)O)ccc2n1Cc1ccccc1",
    "units": "%",
    "measurement": -4.64
  },
  {
    "compound": "C=CC(C)(O)CC/C=C(\\C)C(=O)OC1CC2(C(=O)O)CCC3(C)C(=CCC4C5(C)CCC(OC6OC(COC7OCC(O)C(O)C7O)C(O)C(OC7OCC(O)C(O)C7O)C6OC6OC(CO)C(O)C(O)C6OC6OCC(O)C(O)C6O)C(C)(C)C5CCC43C)C2CC1(C)C (configuration not stated)",
    "units": "%",
    "measurement": 1.8
  }
]

// query Tell me the measured max response of "N#Cc1ccc2[nH]c(O)c(-c3ccc(CN4CCOCC4)cn3)c2c1" , please.
// result -16.6

// query Repeat for the following compound: CC(=O)O[C@@H]1[C@H](O[C@@H]2OC[C@](O)(CO)[C@H]2O)[C@@H](O[C@@H]2O[C@@H](C)[C@H](O)[C@@H](O)[C@H]2O)[C@H](OC(=O)[C@]23CCC(C)(C)C[C@H]2C2=CCC4[C@@]5(C)C[C@H](O)[C@H](O[C@@H]6O[C@H](C(=O)O)[C@@H](O)[C@H](O)[C@H]6O)[C@@](C)(C(=O)O)C5CC[C@@]4(C)[C@]2(C)CC3)O[C@@H]1C (some centres not stated)
// result 2.52

// query Repeat for the following compound: C=C1C(O[C@@H]2O[C@H](CO)[C@@H](O)[C@H](O)[C@@H]2O)CC2C(C)(C)C(O)CCC2(C)C1CC/C(C)=C\CO (some centres not stated)
// result -3.89

// query Repeat for the following compound: "COc1cc([C@H]2OC[C@]3(OC(C)=O)[C@@H](c4ccc(O[C@@H]5O[C@H](CO)[C@@H](O)[C@H](O)[C@H]5O)c(OC)c4)OC[C@H]23)ccc1O"
// result 4.83

// query Repeat for the following compound: CC1(C)O[C@@]2(C)CC[C@@H]1C[C@@H]2OC1OC(CO)C(O)C(O)C1O (some centres not stated)
// result -8.31

// query Repeat for the following compound: "CC(=O)OC[C@]12[C@H](OC(C)=O)C(=O)[C@@H]3[C@@H](OC(C)=O)[C@@]14O[C@@]3(C)COC(=O)c1cccnc1[C@@H](C)[C@H](C)C(=O)O[C@@H]([C@H](OC(C)=O)[C@@H]2OC(C)=O)[C@]4(C)O"
// result -8.22

// query Repeat for the following compound: C=C1CC23CCC4[C@@](C)(CCC[C@@]4(C)C(=O)O)C2CCC1C3 (some centres not stated)
// result 3.55

// query Repeat for the following compound: CC1(C)CC[C@]2(C(=O)O[C@@H]3O[C@H](CO)[C@@H](O)[C@H](O)[C@H]3O)CC[C@]3(C)C(=CCC4[C@@]5(C)C[C@@H](O)[C@H](O)[C@@](C)(CO)C5CC[C@]43C)C2C1 (some centres not stated)
// result -1.65

// query Repeat for the following compound: COC1CC(=O)C23C(=O)NC(CC(C)C)C2C(C)C(C)=CC3/C=C(\C)CCC1O (configuration not stated)
// result -0.706

// query Repeat for the following compound: Cc1nnc(C(C)C)n1C1CC2CCC(C1)N2CCC(NC(=O)C1CCC(F)(F)CC1)c1ccccc1 (configuration not stated)
// result -0.909

----------
- method_summary: HepG2 cells viability qHTS for Zika virus inhibitors (AID 1347168); further: on the % scale 0 is the no-effect control and ±100 the full control effect
- measurement_conditions: Zika counter-screen; series mostly up to 45.9 µM
Inconclusive results are not listed. The source made the active and inactive calls. Calls come from the whole dose curve; as a rule, active = well fitted cell-killing curve with a large enough effect; inconclusive = small, poorly fitted or top-dose-only effect; inactive = flat fitted curve, though single readings scatter.
measured_endpoint: outcome

Previously resolved entries follow.
[
  {
    "compound": "O=C(O)c1cc(O)c2cccc(O)c2c1O[C@@H]1O[C@H](CO)[C@@H](O)[C@H](O)[C@H]1O",
    "measurement": "inactive"
  },
  {
    "compound": "COc1cccc(-n2nc(C(=O)O)cc2-c2ccc(C3CCCCC3)c(Cl)c2)c1",
    "measurement": "inactive"
  },
  {
    "compound": "O=C(O)c1cnn(-c2nc3cc(OC(F)(F)F)c(Cl)cc3[nH]2)c1",
    "measurement": "inactive"
  },
  {
    "compound": "CCOc1c2c(c(OCC)c3ccccc13)C(=O)N(c1ccc(CC(=O)NS(=O)(=O)c3ccccc3)cc1)C2",
    "measurement": "inactive"
  },
  {
    "compound": "CC(C)C1=CCC(C)(O)C(OC2OC(CO)C(O)C(O)C2O)C1 (stereo not drawn)",
    "measurement": "inactive"
  },
  {
    "compound": "CC1(C)CCC(C)(C)c2cc3c(cc21)Sc1ccccc1N=C3c1ccc(C(=O)O)cc1",
    "measurement": "inactive"
  }
]

// query Tell me the measured outcome of N#CC1C(=O)Nc2scc(-c3ccc(-c4ccccc4O)cc3)c2C1=O (stereo not drawn) , please.
// result inactive

// query Repeat for the following compound: CC(C)(O)C1CC=C(C(=O)OCC2OC(Oc3c(O)cc(C(=O)O)cc3O)C(O)C(O)C2O)CC1 (stereo not drawn)
// result inactive
